target: DM EGFR (DoubleMutantEGFR, L828R/T790M) (Homo sapiens, UniProt P00533, L858R/T790M); assay: Inhibition of DM EGFR kinase activity (ADP-Glo); conditions: inhibition of kinase activity, EGFR DM (L828R/T790M)
measured-endpoint: IC50 (nM)

In [3]: df
Out[3]:
                                   compound  measured_endpoint   val
0  C=CC(=O)Nc1cc(Nc2nccc(C(=O)c3ccc(N4CCC4)cc3)n2)c(OC)cc1N(C)CCN(C)C [EGFR_3365_58]               IC50  2.36
1  C=CC(=O)Nc1cc(Nc2nccc(C(=O)c3ccc(N4CCCC4)cc3)n2)c(OC)cc1N(C)CCN(C)C [EGFR_3365_63]               IC50  0.94
2  C=CC(=O)Nc1cc(Nc2nccc(C(=O)c3ccc(N4CCC[C@H](O)C4)cc3)n2)c(OC)cc1N(C)CCN(C)C [EGFR_3365_108]               IC50  1.71
3  C=CC(=O)Nc1cc(Nc2nccc(C(=O)c3ccccc3Br)n2)c(OC)cc1N(C)CCN(C)C [EGFR_3365_12]               IC50  25.5

====

test: Chemical stability in simulated intestinal fluid (SIF); format: physicochemical; details: SIF without enzymes, pH 6.5; 10 μm; 2 hours at 37° C.; substance amount remaining
Each entry below lists one item and its recorded Stability in SIF, % value.
measured-endpoint: Stability in SIF, % (%)

In [3]: df
Out[3]:
                                   molecule  display_unit    val
0  C=CC(=O)Nc1cc(Nc2nccc(C(=O)c3ccccc3OC)n2)c(OC)cc1N(C)CCN(C)C [EGFR_3365_33]             %   96.8
1  C=CC(=O)Nc1cc(Nc2nccc(C(=O)c3ccc(OCCC)cc3)n2)c(OC)cc1N(C)CCN(C)C [EGFR_3365_30]             %   92.9
2  C=CC(=O)Nc1cc(Nc2nccc(C(=O)c3ccc(OC(C)C)cc3OC(C)C)n2)c(OC)cc1N(C)CCN(C)C [EGFR_3365_71]             %  100.0
3  C=CC(=O)Nc1cc(Nc2cc(C(=O)c3ccc(OCCC)cc3)ccn2)c(OC)cc1N(C)CCN(C)C [EGFR_3365_50]             %   98.5
4  C=CC(=O)Nc1cc(Nc2nccc(C(=O)c3ccc(N(C)C)cc3)n2)c(OC)cc1N(C)CCN(C)C [EGFR_3365_73]             %  100.0
5  C=CC(=O)Nc1cc(Nc2nccc(C(=O)c3ccc(OCCC)cc3OCCC)n2)c(OC)cc1N(C)CCN(C)C [EGFR_3365_70]             %   98.6
6  C=CC(=O)Nc1cc(Nc2nccc(C(=O)c3ccccc3Br)n2)c(OC)cc1N(C)CCN(C)C [EGFR_3365_12]             %  100.0

====

# Lookup of reported SI, IC50(WT)/IC50(DM) keyed by entry
target: DM EGFR (DoubleMutantEGFR, L828R/T790M) (Homo sapiens, UniProt P00533, L858R/T790M); construct: purchased SignalChem; assay: Inhibition of DM EGFR kinase activity (ADP-Glo); assay type: biochemical; settings: selectivity index, kinase EGFR WT vs EGFR DM
measured-endpoint: SI, IC50(WT)/IC50(DM)

In [3]: df
Out[3]:
                                   molecule                             target_system    val
0  C=CC(=O)Nc1cc(Nc2cc(C(=O)c3ccc(OCCC)cc3)ccn2)c(OC)cc1N(C)CCN(C)C [EGFR_3365_50]  DM EGFR (DoubleMutantEGFR, L828R/T790M) (Homo sapiens, UniProt P00533, L858R/T790M)   9.74
1  C=CC(=O)Nc1cc(Nc2nccc(C(=O)c3ccc(OCCOC)cc3)n2)c(OC)cc1N(C)CCN(C)C [EGFR_3365_92]  DM EGFR (DoubleMutantEGFR, L828R/T790M) (Homo sapiens, UniProt P00533, L858R/T790M)  17.56
2  C=CC(=O)Nc1cc(Nc2cc(C(=O)c3ccccc3)ccn2)c(OC)cc1N(C)CCN(C)C [EGFR_3365_3]  DM EGFR (DoubleMutantEGFR, L828R/T790M) (Homo sapiens, UniProt P00533, L858R/T790M)   5.29
3  C=CC(=O)Nc1cc(Nc2nccc(C(=O)c3ccc(N4CCC(N(C)C)CC4)cc3OC)n2)c(OC)cc1N(C)CCN(C)C [EGFR_3365_127]  DM EGFR (DoubleMutantEGFR, L828R/T790M) (Homo sapiens, UniProt P00533, L858R/T790M)   8.29
4  C=CC(=O)Nc1cc(Nc2nccc(C(=O)c3ccc(OCCC)cc3OC)n2)c(OC)cc1N(C)CCN(C)C [EGFR_3365_101]  DM EGFR (DoubleMutantEGFR, L828R/T790M) (Homo sapiens, UniProt P00533, L858R/T790M)  11.55
5  C=CC(=O)Nc1cc(Nc2nccc(C(=O)c3ccc(N4CCC(C#N)CC4)cc3)n2)c(OC)cc1N(C)CCN(C)C [EGFR_3365_97]  DM EGFR (DoubleMutantEGFR, L828R/T790M) (Homo sapiens, UniProt P00533, L858R/T790M)  36.55
6  C=CC(=O)Nc1cc(Nc2nccc(C(=O)c3ccc(N4CCCC4)cc3OC)n2)c(OC)cc1N(C)CCN(C)C [EGFR_3365_123]  DM EGFR (DoubleMutantEGFR, L828R/T790M) (Homo sapiens, UniProt P00533, L858R/T790M)  19.58

====

Below, each entry is listed with its recorded SI, IC50(WT)/IC50(DM).
biological target: DM EGFR (DoubleMutantEGFR, L828R/T790M) (Homo sapiens, UniProt P00533, L858R/T790M); construct: purchased SignalChem; assay: Inhibition of DM EGFR kinase activity (ADP-Glo); type: biochemical; conditions: selectivity index, kinase EGFR WT vs EGFR DM
Structures can show the parent of a compound that is named as a salt.
measured-endpoint: SI, IC50(WT)/IC50(DM)

                                   compound      measured_endpoint    val
0  C=CC(=O)Nc1cc(Nc2nccc(C(=O)c3cccc([N+](=O)[O-])c3)n2)c(OC)cc1N(C)CCN(C)C  SI, IC50(WT)/IC50(DM)  74.07
1  C=CC(=O)Nc1cc(Nc2cc(C(=O)c3ccc(C)cc3)ccn2)c(OC)cc1N(C)CCN(C)C  SI, IC50(WT)/IC50(DM)   7.96
2  C=CC(=O)Nc1cc(Nc2nccc(C(=O)c3ccc(OC(C)C)cc3)n2)c(OC)cc1N(C)CCN(C)C  SI, IC50(WT)/IC50(DM)  15.12
3  C=CC(=O)Nc1cc(Nc2nccc(C(=O)c3ccc(N4CCN(C)CC4)cc3)n2)c(OC)cc1N(C)CCN(C)C [EGFR_3365_62, formate]  SI, IC50(WT)/IC50(DM)  19.37

====

system: H1975 (lung adenocarcinoma, DM, L828R/T790M); test: Antiproliferative activity on H1975 cells (Alamar Blue); assay type: cell-based; details: selectivity index, A549 vs H1975 cells
// reported SI IC50(A549)/IC50(DM) for each item listed
measured-endpoint: SI IC50(A549)/IC50(DM)

                                   compound                             target_system    val
0  C=CC(=O)Nc1cc(Nc2nccc(C(=O)c3ccc(OC4CC4)cc3)n2)c(OC)cc1N(C)CCN(C)C [EGFR_3365_116]  H1975 (lung adenocarcinoma, DM, L828R/T790M)    400
1  C=CC(=O)Nc1cc(Nc2cc(C(=O)c3ccc(N4CCN(C)CC4)cc3)ccn2)c(OC)cc1N(C)CCN(C)C [EGFR_3365_55]  H1975 (lung adenocarcinoma, DM, L828R/T790M)     55
2  C=CC(=O)Nc1cc(Nc2nccc(C(=O)c3c(OC)cc(OC)cc3OC)n2)c(OC)cc1N(C)CCN(C)C [EGFR_3365_124]  H1975 (lung adenocarcinoma, DM, L828R/T790M)    298
3  C=CC(=O)Nc1cc(Nc2nccc(C(=O)c3ccc(N4CCCCC4)cc3)n2)c(OC)cc1N(C)CCN(C)C [EGFR_3365_90]  H1975 (lung adenocarcinoma, DM, L828R/T790M)   1060
4  C=CC(=O)Nc1cc(Nc2nccc(C(=O)c3ccc(N4CCC[C@H](OC)C4)cc3)n2)c(OC)cc1N(C)CCN(C)C [EGFR_3365_110]  H1975 (lung adenocarcinoma, DM, L828R/T790M)    439
5  C=CC(=O)Nc1cc(Nc2cc(C(=O)c3ccccc3OC)ccn2)c(OC)cc1N(C)CCN(C)C [EGFR_3365_88]  H1975 (lung adenocarcinoma, DM, L828R/T790M)    238
6  C=CC(=O)Nc1cc(Nc2nccc(C(=O)c3ccc(N4CCC4)cc3)n2)c(OC)cc1N(C)CCN(C)C [EGFR_3365_58]  H1975 (lung adenocarcinoma, DM, L828R/T790M)  >1235
